Origin of values: patent US20150191469A1

Test system: HIV
testDescription: MT4 assay: antiviral HIV activity (cell protection, cell titer glo readout at 96 hours)
Type: cell-based
experimentalSetup: Human immunodeficiency virus 1, MT4, 96 h, MT4 cells, cell titer glo readout at 96 hours, 10 point dose response; read-out: HIV MT4 Assay IC50
Field: IC50. Provide a value for each of the molecules that follow.
Answers are plain numbers, in nM.

Give IC50 for all molecules that follow.
1. Cc1nc2c(cc(C(=O)N3C[C@@H]4CC[C@H]3CN(C3COC3)C4)n2C)c(-c2cc(F)c3c(c2C)CCCO3)c1[C@H](OC(C)(C)C)C(=O)O [Example 188]
2. Cc1nc2c(cc(-c3nnc(N4CCS(=O)(=O)CC4)o3)n2C)c(-c2cc(F)c3c(c2C)CCCO3)c1[C@H](OC(C)(C)C)C(=O)O [Example 316]
3. Cc1nc2c(cc(-c3ccnc(N4CCCNCC4)c3)n2C)c(-c2cc(F)c3c(c2C)CCCO3)c1[C@H](OC(C)(C)C)C(=O)O (atropisomer, axis not shown) [Example 96]

86.7
566
350

Batch request: IC50 per item, same order as input.
1. Cc1nc2c(cc(-c3nnc(N4CCN(C5CC5)CC4)o3)n2C)c(-c2cc(F)c3c(c2C)CCCO3)c1[C@H](OC(C)(C)C)C(=O)O [Example 336]
2. COCCN(C)c1nnc(-c2cc3c(-c4cc(F)c5c(c4C)CCCO5)c([C@H](OC(C)(C)C)C(=O)O)c(C)nc3n2C)o1 [Example 307]
3. Cc1nc2c(cc(-c3nnc(N4CCC(N5CCCC5)CC4)o3)n2C)c(-c2cc(F)c3c(c2C)CCCO3)c1[C@H](OC(C)(C)C)C(=O)O [Example 344]
4. Cc1nc2c(cc(C(=O)NC3CC3)n2C)c(-c2cc(F)c3c(c2C)CCCO3)c1[C@H](OC(C)(C)C)C(=O)O [Example 234]
5. Cc1nc2c(cc(-c3cc(-c4ccc5c(cnn5C)c4)ncn3)n2C)c(-c2cc(F)c3c(c2C)CCCO3)c1[C@H](OC(C)(C)C)C(=O)O [Example 142]
6. Cc1nc2c(cc(C(=O)N3CCOC(C)(C(=O)NC4CCCC4)C3)n2C)c(-c2cc(F)c3c(c2C)CCCO3)c1[C@H](OC(C)(C)C)C(=O)O (stereo partly drawn) [Example 205]
7. Cc1nc2c(cc(-c3nnc(-c4ccc5c(cnn5C)c4)o3)n2C)c(-c2cc(F)c3c(c2C)CCCO3)c1[C@H](OC(C)C)C(=O)O [Example 442]

4.5
12.3
130
44.7
1.8
373
5.1

Quick one: give me IC50 for each item below, same order please.
1. Cc1nc2c(cc(-c3nsc(N4CCNCC4)n3)n2C)c(-c2cc(F)c3c(c2C)CCCO3)c1[C@H](OC(C)(C)C)C(=O)O [Example 367]
2. Cc1nc2c(cc(-c3ccnc(-c4ccc5nn(C)nc5c4)c3)n2C)c(-c2cc(F)c3c(c2C)CCCO3)c1[C@H](OC(C)(C)C)C(=O)O [Example 61]

1: 17.5; 2: 2.6
